// data source = the Human Domainome abundance scans (Beltran et al. 2025)

B1: Lysine-specific demethylase 2B, residues 656 to 722; numbered along this chain, Q8NHM5 (parent)
chain: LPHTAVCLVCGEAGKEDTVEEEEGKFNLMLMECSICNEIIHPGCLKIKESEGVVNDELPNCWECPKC

Variants of: B1
Procedure Details: abundance fitness (aPCA) (normalised: wild type 0, dead -1); higher = more abundant; growth selection in yeast, the domain comes from the species named
Condition Label: Homo sapiens
abundance fitness by entry:
Reply with the value as a number alone.

So for `L58R` , the logged abundance fitness turned out to be 0.076

So for `E38T` , the logged abundance fitness turned out to be -0.57

So for `N55R` , the logged abundance fitness turned out to be -0.015

So for `P42C` , the logged abundance fitness turned out to be -0.355

So for `E16C` , the logged abundance fitness turned out to be -0.556

So for `C67Y` , the logged abundance fitness turned out to be -1.08
